- assay remarks: log P
- Format: physicochemical
- condition: Table 4

molecule | logP
COC(C(=NOCCNC(=O)c1[nH]c2ccc(Cl)cc2c1-c1ccccc1)C(O)C(C)O)C1Cc2cc3cc(OC4CC(OC5CC(O)C(O)C(C)O5)C(O)C(C)O4)c(C)c(O)c3c(O)c2C(=O)C1OC1CC(OC2CC(OC3CC(C)(O)C(O)C(C)O3)C(O)C(C)O2)C(O)C(C)O1 (stereo not shown) | 3.5

* * *

- assay remarks: log P
- Format: physicochemical
- condition: Table 4

compound | logP
CO[C@H](C(=NOCCNC(=O)c1[nH]c2ccc(Cl)cc2c1-c1ccc(Cl)cc1)[C@@H](O)[C@@H](C)O)[C@@H]1Cc2cc3cc(O[C@H]4C[C@@H](O[C@H]5C[C@@H](O)[C@H](O)[C@@H](C)O5)[C@H](O)[C@@H](C)O4)c(C)c(O)c3c(O)c2C(=O)[C@H]1O[C@H]1C[C@@H](O[C@H]2C[C@@H](O[C@H]3C[C@](C)(O)[C@H](O)[C@@H](C)O3)[C@@H](O)[C@@H](C)O2)[C@H](O)[C@@H](C)O1 | 4.2
COC(C(=NOCCNC(=O)c1[nH]c2ccc(Cl)cc2c1-c1cccs1)C(O)C(C)O)C1Cc2cc3cc(OC4CC(OC5CC(O)C(O)C(C)O5)C(O)C(C)O4)c(C)c(O)c3c(O)c2C(=O)C1OC1CC(OC2CC(OC3CC(C)(O)C(O)C(C)O3)C(O)C(C)O2)C(O)C(C)O1 (stereo not drawn) | 3.3
CO[C@H](C(=NOCCNC(=O)c1cc2cc(Cl)ccc2[nH]1)[C@@H](O)[C@@H](C)O)[C@@H]1Cc2cc3cc(O[C@H]4C[C@@H](O[C@H]5C[C@@H](O)[C@H](O)[C@@H](C)O5)[C@H](O)[C@@H](C)O4)c(C)c(O)c3c(O)c2C(=O)[C@H]1O[C@H]1C[C@@H](O[C@H]2C[C@@H](O[C@H]3C[C@](C)(O)[C@H](O)[C@@H](C)O3)[C@@H](O)[C@@H](C)O2)[C@H](O)[C@@H](C)O1 | 2.2
